Measured values drawn from ChEMBL document CHEMBL3808378 for this set.

protocol: Selectivity index, ratio of IC50 for fall armyworm Sf9 cells to IC50 for Cytotoxicity against human HL60 cells
Type: toxicity, cell-based
measurement.conditions: fall armyworm and human, read-out: Ratio IC50
measured.attribute: selectivity ratio

> print(dat)
                                   compound  measured.attribute  assay.result
1  COc1cc(C[C@@H](C)[C@@H](C)Cc2ccc(O)c(OC)c2)ccc1O [MESODIHYDROGUAIARETIC ACID]   selectivity ratio           1.3
2   COc1cc(CC[C@H](C)Cc2ccc(O)c(OC)c2)ccc1O   selectivity ratio             2
3  COc1cc(C[C@H](C)[C@@H](C)Cc2ccc(O)c(OC)c2)ccc1O   selectivity ratio           1.3
